Item-by-item account of Kd
ASSAYED_TARGET: T1, S15-extra cellular domain (ECD) monomer (human, UniProt Q6ZMC9 20-263)
T1 construct: also called S15 monomer protein
T1 sequence: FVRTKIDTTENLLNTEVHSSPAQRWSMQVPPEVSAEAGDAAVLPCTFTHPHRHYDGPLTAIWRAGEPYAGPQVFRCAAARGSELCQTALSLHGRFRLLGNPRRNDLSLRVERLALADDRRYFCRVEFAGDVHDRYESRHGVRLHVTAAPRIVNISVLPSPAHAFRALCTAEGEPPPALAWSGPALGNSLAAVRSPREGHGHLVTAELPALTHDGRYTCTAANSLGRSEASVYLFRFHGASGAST
EXPERIMENT_SUMMARY: BLI (Octet RED96), mAb on anti-human Fc sensors, S15-ECD monomer in solution, global fit
// return numeric value only (unit: nM, not printed)

Reference set (2 entries):
8C8 (antibody, V domains shown, Mouse anti-human Siglec-15 mAb) VH: QVQLKQSGAELVKPGASVKISCKASGYTFTDYYVNWVKQRPGQGLEWIGKIGPESVSIYYSEKFKAKATLTADKSSSTAYMQLSSLTSEDSAVYFCASYYYGFAYWGQGTLVTVSA VL: DIVMTQAAPSVPVTPGESVSISCRSSKSLLHSNGNTYLYWFLQRPGQSPQLLIYRMSNLASGVPDRFGGSGSGTAFTLRISRVEAEDVGVYYCMQHLEYPYTFGGGTKLEIK : 0.89
3H10 (antibody, V domains shown, Mouse anti-human Siglec-15 mAb) VH: EVQLQQSGAELVRPGASVKLSCTASGFNIKDYYMHWVKERPEQGLEWIGRIDPEDGDIEYDPKFQGKATMTADTSSNTAYLQFSSLTSEDTAVYYCVTDYDYDGGWFAYWGQGTLVTVSA VL: QIILTQSPAIMSASPGEKVTMTCSASSSTSFMHWYQQKPGTSPKRWIFDTSKLASGVPGRFIGSGSGTSYSLTISTMEAEDAATYYCHQRSAYPWTFGGGTKLEIK : 0.6

Attention now turns to another entry.
Record 10G9 (antibody, V domains shown, Mouse anti-human Siglec-15 mAb) VH: EVQLLETGGGLVQPGGSRGLSCEGSGFTFSDFWMSWVRQTPGKTLEWIGDINSDGSAVNYAPSIKDQFTIFRDNDKRTLHLQMINVRSEDTATYFCVRYDDYGYFDVWGTGTTVTVSS VL: QAVVTQESALTTSPGETVTLTCRSSTGAVTTSNYANWVQEKPDHLFTGLIGGTNNRAPGVPARFSGSLIGDKAALTITGAQTEDEAIYFCALWYSNHWVFGGGTKLTVL . Reported Kd: 0.55
